test system: HIVIIIB; experiment: HIV-1 replication in MT2 cell line with 30% human serum (RT activity in supernatant); type: cell-based; conditions: Human immunodeficiency virus 1, 120 h, MT2 cells, day 5 after infection, average if tested more than once, read-out: MT2 (HIVIIIB) with human serum IC50 range
REPORTED_PROPERTY: IC50

Answered examples (3):
{"COMPOUND_SMILES": "C=C(C)[C@@H]1CC[C@]2(NC(=O)NCc3ccccc3)CC[C@]3(C)[C@H](CC[C@@H]4[C@@]5(C)CC[C@H](OC(=O)CC(C)(C)C(=O)O)C(C)(C)[C@@H]5CC[C@]43C)[C@@H]12", "IC50": "< 199 nM"}
{"COMPOUND_SMILES": "C=C(C)[C@@H]1CC[C@]2(NC(=O)OC(C)(C)C)CC[C@]3(C)[C@H](CC[C@@H]4[C@@]5(C)CC[C@H](OC(=O)[C@H]6CC[C@@](C)(C(=O)O)C6(C)C)C(C)(C)[C@@H]5CC[C@]43C)[C@@H]12", "IC50": "> 1000 nM"}
{"COMPOUND_SMILES": "C=C(C)[C@@H]1CC[C@]2(NC(=O)c3nnc(C)o3)CC[C@]3(C)[C@H](CC[C@@H]4[C@@]5(C)CC[C@H](OC(=O)CC(C)(C)C(=O)O)C(C)(C)[C@@H]5CC[C@]43C)[C@@H]12", "IC50": "< 199 nM"}

// fetch HIVIIIB IC50 for `C=C(C)[C@@H]1CC[C@]2(NC(=O)CCN3CCCC3)CC[C@]3(C)[C@H](CC[C@@H]4[C@@]5(C)CC[C@H](OC(=O)CC(C)(C)C(=O)O)C(C)(C)[C@@H]5CC[C@]43C)[C@@H]12`
< 199 nM

Another: `C=C(C)[C@@H]1CC[C@]2(N)CC[C@]3(C)[C@H](CC[C@@H]4[C@@]5(C)CC[C@H](OC(=O)[C@H]6CC[C@@](C)(C(=O)O)C6(C)C)C(C)(C)[C@@H]5CC[C@]43C)[C@@H]12`
< 199 nM
